Source of measurements: PubChem BioAssay (NCI)

# growth annotations
- Test system: SF-268 CNS
- ASSAY_EXPLANATION: NCI-60 one-dose screen, 48 h (100 = growth as untreated, 0 = no growth, -100 = all killed)
- EXPERIMENTAL_CONDITIONS: 10 µM unless noted
Compounds without any hit were thinned out: in the full panel of roughly 83,000, 20% have a hit.
REPORTED_ENDPOINT: growth (%)

COMPOUND: CC(C)C1c2ccc(O)cc2Oc2nc(N)c(C#N)c(N)c21 (stereo not drawn)
REPORTED_ENDPOINT: growth
VALUE_REPORTED: 112
--
COMPOUND: O=C(O)c1nn(Cc2ccc(Cl)cc2)c2ccccc12
REPORTED_ENDPOINT: growth
VALUE_REPORTED: 109
--
COMPOUND: CCOP(=O)(OCC)Oc1ccc(Sc2ccc(OP(=O)(OCC)OCC)cc2)cc1
REPORTED_ENDPOINT: growth
VALUE_REPORTED: 100

---

- Tested on: HL-60(TB) leukemia
- ASSAY_EXPLANATION: NCI-60 one-dose screen, 48 h
- EXPERIMENTAL_CONDITIONS: 10 µM unless noted
Compounds without any hit were thinned out: in the full panel of roughly 83,000, 20% have a hit. Active and inactive are the calls of the source. The calls were made as follows: active = growth percent below 10; inactive = the rest.
Classes used: active, inactive

COMPOUND: CCN1CCN(c2cc(C)nc(NCc3cc(Nc4ccnc5cc(Cl)ccc45)ccc3F)n2)CC1
LABEL_VALUE: inactive
//
COMPOUND: COc1ccc(-c2ccc3c(N4CCOC[C@@H]4C)nc(N4CCOC[C@@H]4C)nc3n2)cc1CO
LABEL_VALUE: inactive
//
COMPOUND: CN1CCN(CCCOc2ccc3ncnc(Nc4ccc(Oc5cccc(F)c5)c(Cl)c4)c3c2)CC1
LABEL_VALUE: active
//
COMPOUND: NC1CCC(Nc2nc(NCc3ccc(-c4ccco4)nc3)c3ncn(C4CCCC4)c3n2)CC1 (stereo unspecified)
LABEL_VALUE: active
//
COMPOUND: COc1cc(C2CC(=O)Nc3c2cnn3Cc2ccco2)cc2c1OCCO2 (stereo unspecified)
LABEL_VALUE: inactive
//
COMPOUND: CCNc1ncnc2n[nH]nc12
LABEL_VALUE: inactive
//
COMPOUND: NCCOc1ncccc1/C=C1\C2C=CC=CC2C2C=CC(F)=CC12 (stereo unspecified)
LABEL_VALUE: active
//
COMPOUND: Nc1c(C(=O)Nc2ccncc2)sc2nc3c(cc12)CCCCCCCC3
LABEL_VALUE: active
//
COMPOUND: CCNC(=O)Oc1ccc(/C(=C(\C)c2ccccc2)c2ccc(OCCCN(C)C)cc2)cc1
LABEL_VALUE: inactive
//
COMPOUND: O=C(Cc1cccc2ccccc12)N/N=C/c1ccc2c(c1)CCC2
LABEL_VALUE: inactive
//
COMPOUND: N=c1c(S(=O)(=O)c2ccccc2)cc2c(=O)n3ccccc3nc2n1C1CCCC1
LABEL_VALUE: inactive
//
COMPOUND: Cc1ccc(NC(=O)Nc2cccnc2)cc1NC(=O)Nc1cccnc1
LABEL_VALUE: inactive
//
COMPOUND: COc1cc2nc(N3CCCC3)nc(Nc3ccccc3)c2cc1OC
LABEL_VALUE: active
//
COMPOUND: ClCCN(CCCl)c1nc(Cl)c(C2CC(c3ccccc3)=NN2c2ccccc2)s1 (stereo unspecified)
LABEL_VALUE: inactive
//
COMPOUND: COC1=CC=CC2(OC)C3(O)CCCc4cccc(c43)N3C(=O)COC132 (stereo unspecified)
LABEL_VALUE: inactive
//
COMPOUND: O=[N+]([O-])c1ccc(Oc2ccc(-c3ccccc3)cc2)cc1
LABEL_VALUE: inactive
//
COMPOUND: COc1ccc2nc(-c3ccc(OC)c(OC)c3)cc(-c3nnc(SCC(=O)Nc4ccc(/C(C)=N\O)cc4)n3-c3ccccc3)c2c1
LABEL_VALUE: inactive
//
COMPOUND: N#Cc1ccc(O)c(C2=NCC(c3cccc(Oc4ccccc4)c3)O2)c1 (stereo unspecified)
LABEL_VALUE: active
//
COMPOUND: CCN(CC)CCCNc1cc(OC)cc2nc3cc(Cl)ccc3nc12
LABEL_VALUE: active
//
COMPOUND: COc1cc(NC(=O)c2cncnc2Nc2ccc3c(ccn3Cc3ccccn3)c2)cc(OC)c1
LABEL_VALUE: active
//
COMPOUND: C#C[C@]1(O)CC[C@H]2[C@@H]3CC=C4c5nc(Nc6ccccn6)sc5CC[C@]4(C)[C@H]3CC[C@@]21C
LABEL_VALUE: inactive

---

- Tested on: HL-60(TB) leukemia
- ASSAY_EXPLANATION: NCI-60 one-dose screen, 48 h
- EXPERIMENTAL_CONDITIONS: 10 µM unless noted
This is part of a sample that, as a whole, favours compounds with a hit. Of some 83,000 tested, about 20% had one in any assay. Calls of active or inactive are those of the source. The calls were made as follows: active = growth percent below 10; inactive = the rest.
Classes used: label 1 = active, label 0 = inactive

COMPOUND: CC/C=C1/C(=O)C=C[C@@H]1C/C=C\CCCC(=O)O
LABEL_VALUE: label 0

COMPOUND: C=C1C(=O)O[C@H]2[C@H]1CC/C(Cn1cc(-c3cc(C)c(C)cc3C)nn1)=C\CC[C@@]1(C)O[C@@H]21
LABEL_VALUE: label 1

COMPOUND: CCCCn1sc(=O)n(Cc2ccc(CNC(=O)OCc3ccc4c(Br)cc(Br)c(O)c4n3)cc2)c1=O
LABEL_VALUE: label 1

COMPOUND: COc1ncc(-c2ccc3ncnc(Nc4cccc(Cl)c4)c3c2)cc1NS(=O)(=O)CCN1CCOCC1
LABEL_VALUE: label 0

COMPOUND: N#Cc1c(N)nc2c(c1N)C(c1ccc(F)cc1)c1ccc(N)cc1O2 (centres undefined)
LABEL_VALUE: label 0

COMPOUND: CN(C)CCOc1nc2ccccc2c2c1-c1ccc(Cl)cc1C2=O
LABEL_VALUE: label 1

COMPOUND: CC(C)Cc1nc(Nc2ccccc2)[nH]c(=O)c1C#N
LABEL_VALUE: label 0

COMPOUND: O=[N+]([O-])c1ccc(N=Nc2c(O)c(N=Nc3cc([N+](=O)[O-])cc([N+](=O)[O-])c3O)cc(N=Nc3cc(S(=O)(=O)O)cc4cc(S(=O)(=O)O)cc(O)c34)c2O)cc1
LABEL_VALUE: label 0

COMPOUND: CC(=O)Oc1ccc(N2C(=O)C(Cl)=C(Nc3cccc(C(F)(F)F)c3)C2=O)cc1
LABEL_VALUE: label 0

---

- System: MDA-MB-435 melanoma
- ASSAY_EXPLANATION: NCI-60 one-dose screen, 48 h
- EXPERIMENTAL_CONDITIONS: 10 µM unless noted
Compounds without any hit were thinned out: in the full panel of roughly 83,000, 20% have a hit. Activity calls are given as the source filed them. The calls were made as follows: active = growth percent below 10; inactive = the rest.
Outcomes: active, inactive

MOLECULE: CC[C@H](C)[C@H](NC(=O)Nc1ccccc1)C(=O)N(C)[C@H](C[C@@H](OC(C)=O)c1nc(C(=O)N[C@@H](Cc2ccccc2)C[C@H](C)C(=O)OC)cs1)C(C)C
LABEL_VALUE: active
//
MOLECULE: CCCCCCCCCCCCOc1ccc(C(=O)Oc2ccc(CSP3(=O)OCC4OC(n5cnc6c(N)ncnc65)C(F)C4OP(=O)(O)OCC4OC(n5ccc(=O)[nH]c5=O)C(F)C4O3)cc2)cc1 (stereo not given)
LABEL_VALUE: inactive
//
MOLECULE: NC(=O)SCC(=O)Nc1ccc([As](=O)(O)O)cc1
LABEL_VALUE: inactive
//
MOLECULE: COc1cc2c(cc1OC)CN(C)C(C)C2 (stereo not given)
LABEL_VALUE: inactive
//
MOLECULE: O=[N+]([O-])c1cccc([As]=[As]c2cccc([N+](=O)[O-])c2)c1 (stereo not given)
LABEL_VALUE: active
//
MOLECULE: COc1ccc(C(=O)c2ccc([As]=O)cc2)cc1 (stereo not given)
LABEL_VALUE: active
//
MOLECULE: COc1ccc(/C=C\c2cc(OC)c(OC)c(OC)c2)cc1N/C=C\C(=O)c1c[nH]c2ccccc12
LABEL_VALUE: active
//
MOLECULE: N#C[Se]CCCNS(=O)(=O)C1CC2C=CC1C2 (stereo not given)
LABEL_VALUE: active
//
MOLECULE: O=C1C=CC(=O)C2C1C1(Cl)C(Cl)=C(Cl)C2(Cl)C1(Cl)Cl (stereo not given)
LABEL_VALUE: active
//
MOLECULE: CC(C)C1c2ccc(O)cc2Oc2nc(N)c(C#N)c(N)c21 (stereo not given)
LABEL_VALUE: inactive

---

- Tested on: A549/ATCC NSCLC
- ASSAY_EXPLANATION: NCI-60 one-dose screen, 48 h (100 = growth as untreated, 0 = no growth, -100 = all killed)
- EXPERIMENTAL_CONDITIONS: 10 µM unless noted
The panel holds about 83,000 compounds, 20% with a hit somewhere; the sample as a whole holds those more often.

COMPOUND: Clc1ccc(SSC(Cl)(Cl)Cl)cc1
TARGET_OF_ASSAY: A549/ATCC NSCLC
growth [%]: 100
--
COMPOUND: N#Cc1ncc(/N=C/c2ccc(N(CCCl)CCCl)cc2)s1
TARGET_OF_ASSAY: A549/ATCC NSCLC
growth [%]: 86
--
COMPOUND: CCC1([N+](=O)[O-])COP(=O)(NCc2cccnc2)OC1 (configuration not stated)
TARGET_OF_ASSAY: A549/ATCC NSCLC
growth [%]: 102
--
COMPOUND: c1cnc2c(c1)ccc1ncccc12
TARGET_OF_ASSAY: A549/ATCC NSCLC
growth [%]: 107
--
COMPOUND: NC(=O)C(Br)CBr (configuration not stated)
TARGET_OF_ASSAY: A549/ATCC NSCLC
growth [%]: 4.34
--
COMPOUND: COc1ccc(/C=C\c2cc(OC)c(OC)c(OC)c2)cc1N/C=C\C(=O)c1c[nH]c2ccccc12
TARGET_OF_ASSAY: A549/ATCC NSCLC
growth [%]: 28.4
--
COMPOUND: CCOC(=O)/C(C#N)=C/c1ccc(N(CCCl)CCCl)cc1
TARGET_OF_ASSAY: A549/ATCC NSCLC
growth [%]: 85.2
--
COMPOUND: CC12CC[C@H](O)C=C1/C(=N/O)CC1C2CCC2(C)C1CC[C@@H]2O (some centres not stated)
TARGET_OF_ASSAY: A549/ATCC NSCLC
growth [%]: 103
--
COMPOUND: CO[C@@H]1[C@H](OC(=O)NC(=O)CCl)CC[C@]2(CO2)[C@H]1[C@@]1(C)O[C@@H]1CC=C(C)C
TARGET_OF_ASSAY: A549/ATCC NSCLC
growth [%]: 59.1
--
COMPOUND: O=C(O)C1[O][Sb][O]C1C(=O)O (configuration not stated)
TARGET_OF_ASSAY: A549/ATCC NSCLC
growth [%]: 103
--
COMPOUND: Nc1ccc([N+](=O)[O-])c2c1Oc1ccccc1O2
TARGET_OF_ASSAY: A549/ATCC NSCLC
growth [%]: 93.8
--
COMPOUND: CCOc1c(Cl)cc(CNC(C)C(O)c2ccccc2)cc1OC (configuration not stated)
TARGET_OF_ASSAY: A549/ATCC NSCLC
growth [%]: 29.3
--
COMPOUND: O=C(N/N=C/c1ccc([N+](=O)[O-])o1)c1cc([N+](=O)[O-])cc([N+](=O)[O-])c1O
TARGET_OF_ASSAY: A549/ATCC NSCLC
growth [%]: 102
--
COMPOUND: CC1CC=CCC12C(=O)NC(=S)NC2=O (configuration not stated)
TARGET_OF_ASSAY: A549/ATCC NSCLC
growth [%]: 91.2
--
COMPOUND: CC1(CF)NC(=O)NC1=O (configuration not stated)
TARGET_OF_ASSAY: A549/ATCC NSCLC
growth [%]: 113
--
COMPOUND: O=C(NCc1ccc([N+](=O)[O-])cc1)Nc1ccc(S(=O)(=O)F)cc1
TARGET_OF_ASSAY: A549/ATCC NSCLC
growth [%]: 75
--
COMPOUND: [O]=[Sn]([CH]1CCCCC1)[CH]1CCCCC1
TARGET_OF_ASSAY: A549/ATCC NSCLC
growth [%]: -83.3
--
COMPOUND: NC(=O)OCC(CO)(c1ccccc1)c1ccccc1
TARGET_OF_ASSAY: A549/ATCC NSCLC
growth [%]: 103
--
COMPOUND: Oc1ccc(Br)cc1CN1CCN(Cc2ccc(Cl)cc2)CC1
TARGET_OF_ASSAY: A549/ATCC NSCLC
growth [%]: 62.3
--
COMPOUND: CC1=C(SCCC(=O)OCC(=O)NCCC[Te]c2ccccc2)C(=O)c2ccccc2C1=O
TARGET_OF_ASSAY: A549/ATCC NSCLC
growth [%]: 0.0697
--
COMPOUND: O=C1NC(=O)C(Cc2ccccc2)(Cc2ccccc2)C(=O)N1
TARGET_OF_ASSAY: A549/ATCC NSCLC
growth [%]: 104
--
COMPOUND: CNc1ccc(C(=O)CC(O)CCC(C)C2OC(=O)CC(O)CC(=O)CC(O)CC(O)CC(O)CC(O)CC3(O)CC(O)C(C(=O)OC)C(CC(O[C@@H]4O[C@H](C)[C@@H](O)[C@H](N)[C@@H]4O)/C=C/C=C/C=C/C=C/C=C/C=C/C=C/C2C)O3)cc1 (some centres not stated)
TARGET_OF_ASSAY: A549/ATCC NSCLC
growth [%]: -65
